System: HCT116 cells
measurement.protocol: Lactate dehydrogenase (LDH) release assay
Type: cell-based
Starred links: 1 amine or outer side, 2 acyl side, 3 side chain; linkers in the order of their positions; H or OH if unused. Positions of bridges follow the written chain, without caps; N, C: chain ends. Non-standard residues stand in square brackets, D forms with d. Residues, ends and D or L forms follow the SMILES beside them. dR8(desαMe) = O=C([C@@H](CCCCCCC=[*:3])N[*:1])[*:2]; Nle(6-ylidene) = O=C([C@H](CCCC=[*:3])N[*:1])[*:2]; tBuAla = CC(C)(C)C[C@H](N)C(=O)O; R8 = C=CCCCCCC[C@@](C)(N)C(=O)O; Cba = N[C@@H](CC1CCC1)C(=O)O; S5 = C=CCCC[C@](C)(N)C(=O)O
measurement.name: LDH: Cytotoxicity assay % Effect (%)
The response must be a number in % with no trailing unit.

The value of LDH: Cytotoxicity assay % Effect measured for the compound CC(=O)N[C@H](C(=O)N[C@@H](CO)C(=O)N[C@@H](Cc1ccccc1)C(=O)N[C@]1(C)CCCCCCC=CCCC[C@@](C)(C(=O)N[C@@H](CCC(=O)O)C(=O)N[C@@H](CC(N)=O)C(=O)N[C@@H](Cc2ccc(O)cc2)C(N)=O)NC(=O)[C@H](CC(C)C)NC(=O)[C@H](CC(C)C)NC(=O)[C@H](C)NC(=O)[C@H](Cc2c[nH]c3ccccc23)NC(=O)[C@H](Cc2ccc(O)cc2)NC(=O)[C@H](CCC(=O)O)NC1=O)[C@@H](C)O [MP-1170] turned out to be 6.762

So for CC(=O)N[C@@H](CCCCN)C(=O)N[C@@H](CCCCN)C(=O)N[C@H](C(=O)N[C@@H](CO)C(=O)N[C@@H](Cc1ccccc1)C(=O)N[C@]1(C)CCCCCCC=CCCC[C@@](C)(C(=O)N[C@@H](CCC(=O)O)C(N)=O)NC(=O)[C@H](CC(C)(C)C)NC(=O)[C@H](CC(C)C)NC(=O)[C@H](C)NC(=O)[C@H](Cc2c[nH]c3ccccc23)NC(=O)[C@H](Cc2ccc(O)cc2)NC(=O)[C@H](CCC(=O)O)NC1=O)[C@@H](C)O [MP-1159] (Ac-KKTSF[R8]EYWAL[tBuAla][S5]E-NH2; staple 6-13) , the logged LDH: Cytotoxicity assay % Effect turned out to be -1.606

LDH: Cytotoxicity assay % Effect recorded for this compound, CC(=O)N[C@@H](Cc1c[nH]cn1)C(=O)N[C@@H](Cc1c[nH]cn1)C(=O)N[C@@H](Cc1c[nH]cn1)C(=O)NCCCCCC(=O)N[C@H](C(=O)N[C@@H](CO)C(=O)N[C@@H](Cc1ccccc1)C(=O)N[C@]1(C)CCCCCCC=CCCC[C@@](C)(C(N)=O)NC(=O)[C@H](CC(C)C)NC(=O)[C@H](CC(C)C)NC(=O)[C@H](C)NC(=O)[C@H](Cc2c[nH]c3ccccc23)NC(=O)[C@H](Cc2ccc(O)cc2)NC(=O)[C@H](CCC(=O)O)NC1=O)[C@@H](C)O [MP-008] , is 42.18

Sample CC(=O)N[C@@H](CCCCN)C(=O)N[C@@H](CCCCN)C(=O)N[C@H](C(=O)N[C@@H](CO)C(=O)N[C@@H](Cc1ccccc1)C(=O)N[C@]1(C)CCCCCCC=CCCC[C@@](C)(C(N)=O)NC(=O)[C@H](CC2CCC2)NC(=O)[C@H](CC(C)C)NC(=O)[C@H](C)NC(=O)[C@H](Cc2c[nH]c3ccccc23)NC(=O)[C@H](Cc2ccc(O)cc2)NC(=O)[C@H](CCC(=O)O)NC1=O)[C@@H](C)O [MP-087] (Ac-KKTSF[R8]EYWAL[Cba][S5]-NH2; staple 6-13) ; LDH: Cytotoxicity assay % Effect observed: 23.77

CC(=O)N[C@H](C(=O)N[C@@H](CO)C(=O)N[C@@H](Cc1ccccc1)C(=O)N[C@@H]1CCCCCCC=CCCC[C@@H](C(N)=O)NC(=O)[C@H](CC(C)(C)C)NC(=O)[C@H](CC(C)C)NC(=O)[C@H](C)NC(=O)[C@H](Cc2c[nH]c3ccccc23)NC(=O)[C@H](Cc2ccc(O)cc2)NC(=O)[C@H](CCC(=O)O)NC1=O)[C@@H](C)O [MP-150] (Ac-TSF[dR8(desαMe)]EYWAL[tBuAla][Nle(6-ylidene)]-NH2; staple 4-11) has a reported LDH: Cytotoxicity assay % Effect of -0.7157

---

Record form. Attribute: LDH: Cytotoxicity assay: % Effect. Fill in for each entry.
Tested on: HCT116 cells
measurement.protocol: Lactate dehydrogenase (LDH) release assay
Format: cell-based
assay.context: 0% FBS 4Hr
Protocol: HCT116 cells were stably transfected with a p53 responsive β-lactamase reporter and expanded in McCoy’s 5 A Medium with 10% fetal bovine serum (FBS), Blasticidin, and Penicillin/Streptomycin and then transferred to 1.5 ml freezing vials and stored under liquid nitrogen in growth media containing 5% DMSO. […] Lactate dehydrogenase release was detected using the CytoTox-ONE Homogenous Membrane Integrity Assay Kit (Promega), as per the manufacturer’s instructions. […]
Positions of bridges follow the written chain, without caps; N, C: chain ends. Non-standard residues stand in square brackets, D forms with d. Residues, ends and D or L forms follow the SMILES beside them. Lys(N3) = [N-]=[N+]=NCCCC[C@H](N)C(=O)O; R8 = C=CCCCCCC[C@@](C)(N)C(=O)O; Cba = N[C@@H](CC1CCC1)C(=O)O; S5 = C=CCCC[C@](C)(N)C(=O)O; βAla = NCCC(=O)O

The value of LDH: Cytotoxicity assay: % Effect measured for the compound CC(=O)N[C@@H](CCCCN=[N+]=[N-])C(=O)NCCC(=O)N[C@@H](CC(C)C)C(=O)N[C@H](C(=O)N[C@@H](Cc1ccccc1)C(=O)N[C@]1(C)CCCCCCC=CCCC[C@@](C)(C(=O)NCC(=O)N[C@@H](C)C(=O)N[C@@H](C)C(N)=O)NC(=O)[C@H](CC2CCC2)NC(=O)[C@H](CCC(N)=O)NC(=O)[C@H](C)NC(=O)[C@H](Cc2c[nH]c3ccccc23)NC(=O)[C@H](Cc2ccc(O)cc2)NC(=O)[C@H](CCC(=O)O)NC1=O)[C@@H](C)O [MP-798] (Ac-[Lys(N3)][βAla]LTF[R8]EYWAQ[Cba][S5]GAA-NH2; staple 6-13) turned out to be 16.01%

Lab note: CC(=O)N[C@@H](CC(C)C)C(=O)N[C@H](C(=O)N[C@@H](Cc1ccccc1)C(=O)N[C@]1(C)CCCCCCC=CCCC[C@@](C)(C(=O)N[C@@H](CO)C(=O)N[C@@H](C)C(=O)N[C@@H](C)C(N)=O)NC(=O)[C@H](CC2CCC2)NC(=O)[C@H](Cc2c[nH]cn2)NC(=O)[C@H](C)NC(=O)[C@H](Cc2c[nH]c3ccccc23)NC(=O)[C@H](Cc2ccc(O)cc2)NC(=O)[C@H](CCC(=O)O)NC1=O)[C@@H](C)O gave LDH: Cytotoxicity assay: % Effect of 4.045%

LDH: Cytotoxicity assay: % Effect in this record for CC(=O)N[C@@H](CCCCN=[N+]=[N-])C(=O)NCCC(=O)N[C@@H](CC(C)C)C(=O)N[C@H](C(=O)N[C@@H](Cc1ccccc1)C(=O)N[C@]1(C)CCCCCCC=CCCC[C@@](C)(C(=O)NCC(=O)NCC(=O)NCC(=O)NCC(=O)NCC(=O)NCC(N)=O)NC(=O)[C@H](CC2CCC2)NC(=O)[C@H](CCC(N)=O)NC(=O)[C@H](C)NC(=O)[C@H](Cc2c[nH]c3ccccc23)NC(=O)[C@H](Cc2ccc(O)cc2)NC(=O)[C@H](CCC(=O)O)NC1=O)[C@@H](C)O [MP-289] (Ac-[Lys(N3)][βAla]LTF[R8]EYWAQ[Cba][S5]GGGGGG-NH2; staple 6-13) : -4.216%

For this compound ( CC(=O)N[C@@H](CCCCN=[N+]=[N-])C(=O)NCCC(=O)N[C@H]1CCCCNC(=O)CC[C@@H]2NC(=O)[C@@](C)(CCCCCCC=CCCC[C@@](C)(C(=O)N[C@@H](CO)C(=O)N[C@@H](C)C(=O)N[C@@H](C)C(N)=O)NC(=O)[C@H](CC3CCC3)NC(=O)[C@H](CCC(N)=O)NC(=O)[C@H](C)NC(=O)[C@H](Cc3c[nH]c4ccccc34)NC(=O)[C@H](Cc3ccc(O)cc3)NC2=O)NC(=O)[C@H](Cc2ccccc2)NC(=O)[C@H]([C@@H](C)O)NC1=O ), measured LDH: Cytotoxicity assay: % Effect is -7.169%

Value of LDH: Cytotoxicity assay: % Effect reported for the compound CC(=O)N[C@@H](CCCCN=[N+]=[N-])C(=O)NCCC(=O)N[C@@H](CC(C)C)C(=O)N[C@H](C(=O)N[C@@H](Cc1ccccc1)C(=O)N[C@]1(C)CCCCCCC=CCCC[C@@](C)(C(=O)N[C@@H](CO)C(=O)N[C@@H](C)C(=O)N[C@@H](C)C(N)=O)NC(=O)[C@H](CC2CCC2)NC(=O)[C@H](CCC(N)=O)NC(=O)[C@H](Cc2c[nH]cn2)NC(=O)[C@H](Cc2c[nH]c3ccccc23)NC(=O)[C@H](Cc2ccc(O)cc2)NC(=O)[C@H](CCC(=O)O)NC1=O)[C@@H](C)O [MP-496, AZIDE-ATSP-7041 (A8H)] is 33.4%

The recorded LDH: Cytotoxicity assay: % Effect for entry CC(=O)N[C@@H](CCCCN=[N+]=[N-])C(=O)NCCC(=O)N[C@@H](CC(C)C)C(=O)N[C@H](C(=O)N[C@@H](Cc1ccccc1)C(=O)N[C@]1(C)CCCCCCn2cc(nn2)CCC[C@@](C)(C(=O)N[C@@H](CO)C(=O)N[C@@H](C)C(=O)N[C@@H](C)C(N)=O)NC(=O)[C@H](CC2CCC2)NC(=O)[C@H](CCC(N)=O)NC(=O)[C@H](C)NC(=O)[C@H](Cc2c[nH]c3ccccc23)NC(=O)[C@H](Cc2ccc(O)cc2)NC(=O)[C@H](CCC(=O)O)NC1=O)[C@@H](C)O equals -2.492%

The measured LDH: Cytotoxicity assay: % Effect associated with CC(=O)N[C@@H](CCCCN=[N+]=[N-])C(=O)NCCC(=O)N[C@@H](CC(C)C)C(=O)N[C@H](C(=O)N[C@@H](Cc1ccccc1)C(=O)N[C@]1(C)CCCCCCC=CCCC[C@@](C)(C(=O)N2CCC[C@@H]2C(=O)N2CCC[C@@H]2C(=O)N2CCC[C@@H]2C(=O)N2CCC[C@@H]2C(=O)N2CCC[C@@H]2C(=O)N2CCC[C@@H]2C(N)=O)NC(=O)[C@H](CC2CCC2)NC(=O)[C@H](CCC(N)=O)NC(=O)[C@H](C)NC(=O)[C@H](Cc2c[nH]c3ccccc23)NC(=O)[C@H](Cc2ccc(O)cc2)NC(=O)[C@H](CCC(=O)O)NC1=O)[C@@H](C)O reads -5.717%

Field LDH: Cytotoxicity assay: % Effect (entry CC(=O)N[C@@H](CCCCN=[N+]=[N-])C(=O)NCCC(=O)N[C@@H](CC(C)C)C(=O)N[C@H](C(=O)N[C@@H](Cc1ccccc1)C(=O)N[C@]1(C)CCCCCCC=CCCC[C@@](C)(C(=O)N[C@@H](CO)C(=O)N[C@@H](C)C(=O)N[C@@H](C)C(N)=O)NC(=O)[C@H](CC2CCC2)NC(=O)[C@H](CCC(N)=O)NC(=O)[C@H](C)NC(=O)[C@H](Cc2c[nH]c3cc(Cl)ccc23)NC(=O)[C@H](Cc2ccc(CP(=O)(O)O)cc2)NC(=O)[C@H](CCC(=O)O)NC1=O)[C@@H](C)O ) reads 3.299%

The reported value for CC(=O)N[C@@H](CCCCN=[N+]=[N-])C(=O)NCCC(=O)N[C@@H](CC(C)C)C(=O)N[C@H](C(=O)N[C@@H](Cc1ccccc1)C(=O)N[C@]1(C)CCCCCCC=CCCC[C@@](C)(C(=O)N[C@@H](CO)C(=O)N[C@@H](C)C(=O)N[C@@H](C)C(N)=O)NC(=O)[C@H](CC2CCC2)NC(=O)[C@H](CCC(N)=O)NC(=O)[C@H](C)NC(=O)[C@H](Cc2c[nH]c3ccccc23)NC(=O)[C@H](Cc2ccc(O)cc2)NC(=O)[C@@H]2CCCN2C1=O)[C@@H](C)O in terms of LDH: Cytotoxicity assay: % Effect is 1.728%

All values here come from paper PMC10786919.
